Reference for the values: patent US12637468B2

- STUDY_TARGET: α5-GABAA receptor (Homo sapiens, UniProt P18507+P31644)
- Construct: expressed in transfected cells; host or cells: HEK293, monoclonal stably transfected line
- Sequence (P31644 32-462): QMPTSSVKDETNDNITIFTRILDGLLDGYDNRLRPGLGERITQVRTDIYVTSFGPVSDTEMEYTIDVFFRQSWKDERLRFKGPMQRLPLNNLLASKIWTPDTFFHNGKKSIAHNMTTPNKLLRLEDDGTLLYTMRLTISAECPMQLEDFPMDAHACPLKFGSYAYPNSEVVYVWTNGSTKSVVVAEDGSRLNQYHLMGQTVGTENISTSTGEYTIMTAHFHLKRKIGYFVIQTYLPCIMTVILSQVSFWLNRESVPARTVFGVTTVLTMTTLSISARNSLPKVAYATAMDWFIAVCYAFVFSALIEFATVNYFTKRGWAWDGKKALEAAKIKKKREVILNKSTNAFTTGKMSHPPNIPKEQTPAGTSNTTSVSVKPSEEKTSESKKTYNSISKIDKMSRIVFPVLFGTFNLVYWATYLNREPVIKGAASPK
- Sequence (P28472 26-473 partner): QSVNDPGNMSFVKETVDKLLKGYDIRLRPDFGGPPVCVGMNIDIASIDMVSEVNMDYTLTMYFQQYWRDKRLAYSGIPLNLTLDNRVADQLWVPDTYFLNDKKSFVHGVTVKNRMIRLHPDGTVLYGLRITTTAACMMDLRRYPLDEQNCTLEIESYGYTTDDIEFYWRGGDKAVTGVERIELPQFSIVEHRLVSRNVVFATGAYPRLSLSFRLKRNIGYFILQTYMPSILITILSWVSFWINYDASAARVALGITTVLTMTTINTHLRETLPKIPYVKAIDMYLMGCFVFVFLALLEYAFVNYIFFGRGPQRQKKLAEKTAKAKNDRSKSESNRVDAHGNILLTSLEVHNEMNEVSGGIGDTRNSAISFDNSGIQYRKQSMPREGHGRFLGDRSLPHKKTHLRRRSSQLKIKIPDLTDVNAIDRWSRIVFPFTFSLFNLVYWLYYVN
- Sequence (P18507 40-467 isoform P18507-1 limits assumed): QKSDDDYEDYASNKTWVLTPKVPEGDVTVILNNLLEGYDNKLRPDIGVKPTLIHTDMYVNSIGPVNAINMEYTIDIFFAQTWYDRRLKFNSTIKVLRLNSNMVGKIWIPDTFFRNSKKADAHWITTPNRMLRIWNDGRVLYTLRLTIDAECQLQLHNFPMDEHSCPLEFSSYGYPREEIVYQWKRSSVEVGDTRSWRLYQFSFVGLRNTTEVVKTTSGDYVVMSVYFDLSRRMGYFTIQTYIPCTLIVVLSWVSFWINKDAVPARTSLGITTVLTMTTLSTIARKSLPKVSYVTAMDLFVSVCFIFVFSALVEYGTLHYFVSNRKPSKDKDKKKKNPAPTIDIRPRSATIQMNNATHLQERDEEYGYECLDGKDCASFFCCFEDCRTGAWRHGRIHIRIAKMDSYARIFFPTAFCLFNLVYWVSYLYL
- ASSAY_NAME: Cell-level screening: whole cell patch clamp, inverse agonist efficacy on α5-GABAA receptor expressed in HEK293
- Format: cell-based
- CONDITION_SET: drug 100 nM, GABA 0.05 μM, HEK293 expressing α5, β3 and γ2 subunits, clamped at −60 mV; read-out: Compound inverse agonist efficacy %
- Method: The inventors used electrophysiological methods to determine the inverse agonist efficacy of the drugs to be tested on the α5-GABAA receptor. The detailed methods are as follows: Different subunits of GABAA receptors were expressed in human […] cell line 293 (HEK293) cell line. […] Drug concentration setting: the final drug concentration used in drug screening was 100 nM, and the GABA concentration range was 0.05 μM. […] Then the current induced by GABA could be detected. […]
y means recorded inhibition at 0.1 µM is 40% or above; n means it is below 40%.

Exam item: Determine whether measured inhibition at 0.1 µM meets or exceeds 40% for COc1cc2nnc(-c3cc(C)on3)n2nc1OCc1ccc(C(F)(F)F)cn1 [Embodiment 59]
Marked response: n

Exam item: Hi, just wondering whether COc1cc2nnc(-c3cc(C)on3)n2nc1OCc1cccc(C(F)(F)F)n1 [Embodiment 45] shows inhibition at 0.1 µM of 40% or higher.
Marked response: y

Exam item: Say whether COc1cc2nnc(-c3cc(C)on3)n2nc1OCc1ccc2nn(C3CN(C)C3)cc2n1 [Embodiment 233] shows inhibition at 0.1 µM of 40% or more.
Marked response: y

Exam item: Hello, I need to know if COc1cc2nnc(-c3cc(C)on3)n2nc1OCc1ccc2c(n1)CCN([C@H]1CCOC1)C2 (single isomer, unassigned) [Embodiment 181] has measured inhibition at 0.1 µM not below 40%. Thanks!
Marked response: y

Exam item: Could you please find out whether COc1cc2nnc(-c3cc(C)on3)n2nc1OCc1ccn2c(C3CCOCC3)nnc2n1 [Embodiment 217] has inhibition at 0.1 µM that meets 40% or exceeds it?
Marked response: y

Exam item: Hello, I need to know if COCCOc1ccnc(COc2nn3c(-c4cc(C)on4)nnc3cc2OC)c1 [Embodiment 10] has measured inhibition at 0.1 µM not below 40%. Thanks!
Marked response: n

Exam item: # bool: inhibition at 0.1 µM of COc1cc2nnc(-c3cc(C)on3)n2nc1OCc1ccc(OCC2CCOC2)cn1 (centres unmarked) [Embodiment 173] >= 40%
Marked response: y

Exam item: Form field: inhibition at 0.1 µM at least 40%? Entry: COc1cc2nnc(-c3cc(C)on3)n2nc1OCc1cccc2ccnn12 [Embodiment 117]
Marked response: n
